Measured furin cleavage Z-score of individual entries
target: furin, P09958; assay: furin cleavage Z-score vs untreated control; higher = more cleavage, active = 3.5 or more, inactive = 1 or less, 8 variable residues between constant flanks; details: 15 min;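 also: purified furin at 1:10 enzyme:substrate in 50 mM HEPES pH 7.5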
Sequence (P09958 whole entry): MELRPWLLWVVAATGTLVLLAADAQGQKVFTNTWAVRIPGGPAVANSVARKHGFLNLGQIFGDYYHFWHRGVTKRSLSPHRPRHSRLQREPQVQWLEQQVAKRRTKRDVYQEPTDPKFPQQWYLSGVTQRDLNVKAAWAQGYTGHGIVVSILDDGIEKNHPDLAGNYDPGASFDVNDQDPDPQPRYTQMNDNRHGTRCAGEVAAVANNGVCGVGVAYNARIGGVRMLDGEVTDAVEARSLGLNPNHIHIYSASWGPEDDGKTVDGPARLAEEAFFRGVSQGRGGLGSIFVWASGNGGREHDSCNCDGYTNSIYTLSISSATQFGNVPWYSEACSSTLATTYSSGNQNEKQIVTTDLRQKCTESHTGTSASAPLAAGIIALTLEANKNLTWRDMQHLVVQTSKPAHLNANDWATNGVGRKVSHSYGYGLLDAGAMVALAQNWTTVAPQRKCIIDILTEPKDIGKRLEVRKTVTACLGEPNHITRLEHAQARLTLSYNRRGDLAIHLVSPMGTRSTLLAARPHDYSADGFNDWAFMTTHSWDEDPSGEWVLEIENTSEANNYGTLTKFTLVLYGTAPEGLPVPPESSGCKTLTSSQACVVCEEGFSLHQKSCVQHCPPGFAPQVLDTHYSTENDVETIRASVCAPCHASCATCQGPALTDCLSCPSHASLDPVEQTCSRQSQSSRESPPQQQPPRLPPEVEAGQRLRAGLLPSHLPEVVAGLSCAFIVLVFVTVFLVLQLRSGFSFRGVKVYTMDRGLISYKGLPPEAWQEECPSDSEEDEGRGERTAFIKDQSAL
Some of the results follow. The true hit rate is not given.
recorded-metric: furin cleavage Z-score

# entry-sequence, reading
rows = [
    ("CARRSRCIRAAGNASASA [FS-1405]", "10.1 (active)"),
    ("CAMTRYSAPPAGNASASA [HC1542]", "-0.0414 (inactive)"),
    ("CALLISQAEAAGNASASA [HC530]", "-1.15 (inactive)"),
    ("CARLPRSVRSAGNASASA [FS-1263]", "4.73 (active)"),
    ("CACTRGVAKAAGNASASA [HC753]", "-0.584 (inactive)"),
    ("CALGNIIMFAAGNASASA [HC1575]", "-1.13 (inactive)"),
    ("CARLPRSAPPAGNASASA [FS-2572]", "5.41 (active)"),
]
